Data origin, for the record: ChEMBL document CHEMBL4177743

target: Geranylgeranyl pyrophosphate synthase (Homo sapiens); assay: Inhibition of GGDPS in human […] cells assessed as increase in Rap1a level at 1 to 10 uM by Western blot analysis; assay type: cell-based
PROPERTY_NAME: MEC (µM)
Report only the number, with the unit µM understood.

CC(C)=CCC/C(C)=C\Cn1cc(CC(C)(P(=O)(O)O)P(=O)(O)O)nn1
0.1

## Input Give the value of MEC reported for the following: `CCC(Cc1cn(CC=C(C)CCC=C(C)C)nn1)(P(=O)(O)O)P(=O)(O)O`
## Output 2.5

## Input Give the value of MEC reported for the following: `CC(C)=CCC/C(C)=C\CCn1cc(CC(C)(P(=O)(O)O)P(=O)(O)O)nn1`
## Output 0.025

## Input Give the value of MEC reported for the following: CC(C)=CCC/C(C)=C/CCn1cc(CC(C)(P(=O)(O)O)P(=O)(O)O)nn1 (mixture of isomers)
## Output 0.03

----------
// IC50 lookup, one value per entry
molecular target: Farnesyl pyrophosphate synthase (Homo sapiens, UniProt P14324); assay: Inhibition of recombinant FDPS (unknown origin) using GPP as substrate pretreated for 10 mins followed by substrate addition measured after 30 mins in presence of [14C]-IPP by liquid scintillation counting method
Sequence (P14324 whole entry): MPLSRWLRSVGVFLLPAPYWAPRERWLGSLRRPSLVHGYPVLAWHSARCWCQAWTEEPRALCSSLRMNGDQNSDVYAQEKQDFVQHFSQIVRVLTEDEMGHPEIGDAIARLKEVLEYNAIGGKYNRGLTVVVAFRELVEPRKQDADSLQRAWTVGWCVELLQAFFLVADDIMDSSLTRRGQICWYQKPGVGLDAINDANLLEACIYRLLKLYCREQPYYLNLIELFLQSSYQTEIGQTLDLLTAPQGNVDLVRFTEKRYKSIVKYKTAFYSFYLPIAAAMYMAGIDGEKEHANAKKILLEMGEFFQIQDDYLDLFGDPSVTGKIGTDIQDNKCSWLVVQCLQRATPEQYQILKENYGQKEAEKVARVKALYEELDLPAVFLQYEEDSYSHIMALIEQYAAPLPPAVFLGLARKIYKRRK
Report only the number, with the unit µM understood.

Known IC50 results, listed for orientation:
CC(C)=CCC/C(C)=C/Cn1cc(CC(C)(P(=O)(O)O)P(=O)(O)O)nn1
71.4
CC(C)=CCC/C(C)=C/CCn1cc(CC(C)(P(=O)(O)O)P(=O)(O)O)nn1
43.1
CCC(Cc1cn(CC=C(C)CCC=C(C)C)nn1)(P(=O)(O)O)P(=O)(O)O
94.3

## Input Give the value of IC50 reported for the following: `CC(C)=CCC/C(C)=C\CCn1cc(CC(C)(P(=O)(O)O)P(=O)(O)O)nn1`
## Output 59.6

## Input Give the value of IC50 reported for the following: CC(C)=CCC/C(C)=C/CCn1cc(CC(C)(P(=O)(O)O)P(=O)(O)O)nn1 (mixture of isomers)
## Output 24.1

## Input Give the value of IC50 reported for the following: CC(C)=CCCC(C)=CCn1cc(CC(C)(P(=O)(O)O)P(=O)(O)O)nn1 (mixture of isomers)
## Output 62.2

----------
target: Geranylgeranyl pyrophosphate synthase (Homo sapiens); assay: Inhibition of GGDPS in human […] cells assessed as increase in Rap1a level at 1 to 10 uM by Western blot analysis; format: cell-based
PROPERTY_NAME: MEC (µM)
Report only the number, with the unit µM understood.

CC(C)=CCC/C(C)=C/CCn1cc(CC(C)(P(=O)(O)O)P(=O)(O)O)nn1
0.02
CC(C)=CCC/C(C)=C/Cn1cc(CC(C)(P(=O)(O)O)P(=O)(O)O)nn1
5

Now, please, on to the next compound.
## Input Give the value of MEC reported for the following: CC(C)=CCCC(C)=CCn1cc(CC(C)(P(=O)(O)O)P(=O)(O)O)nn1 (mixture of isomers)
## Output 0.1
